Data provenance is patent US20240270821A1.

Target: hGLP-1R (Homo sapiens)
Sequence (P43220 24-463): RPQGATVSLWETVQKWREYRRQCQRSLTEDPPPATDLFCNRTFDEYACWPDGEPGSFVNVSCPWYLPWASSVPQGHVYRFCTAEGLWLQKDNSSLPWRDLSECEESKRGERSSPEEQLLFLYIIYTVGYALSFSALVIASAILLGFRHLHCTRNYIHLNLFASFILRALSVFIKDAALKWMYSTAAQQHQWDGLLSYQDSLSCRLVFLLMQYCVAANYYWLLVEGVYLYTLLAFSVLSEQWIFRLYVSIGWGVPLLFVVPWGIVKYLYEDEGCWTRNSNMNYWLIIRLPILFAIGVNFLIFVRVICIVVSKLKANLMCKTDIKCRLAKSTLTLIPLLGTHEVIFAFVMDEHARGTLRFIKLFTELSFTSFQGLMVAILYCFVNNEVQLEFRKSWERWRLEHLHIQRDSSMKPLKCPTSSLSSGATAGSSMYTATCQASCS
Test: Functional cAMP activation in the presence of 0.1% casein (no HSA);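 note: intracellular cAMP rise after 30 min at 37 °C read by HTRF, normalized between buffer only (0%) and maximal control ligand (100%), four-parameter variable-slope fit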
Type: cell-based
Details: in the presence of 0.1% casein (no HSA); geometric mean; read-out: Relative cAMP EC50, hGLP-1R
Starred links: 1 amine or outer side, 2 acyl side, 3 side chain; linkers in the order of their positions; H or OH if unused. Non-standard residues stand in square brackets, D forms with d. Groups on a side chain read outwards from the residue. *: point of attachment. C20 diacid = O=C(O)CCCCCCCCCCCCCCCCCCC(=O)*; C18 diacid = O=C(O)CCCCCCCCCCCCCCCCC(=O)*; γGlu = O=C(O)[C@H](CCC(=O)[*:2])N[*:1]; αMe4Pal = C[C@](N)(Cc1ccncc1)C(=O)O; 4Pal = N[C@@H](Cc1ccncc1)C(=O)O; αMeL = CC(C)C[C@](C)(N)C(=O)O; Orn = NCCC[C@H](N)C(=O)O; AEEA = NCCOCCOCC(=O)O; Aib = CC(C)(N)C(=O)O
Below: a set of entries, each annotated with reported EC50.
READOUT TYPE: EC50 (nM)

| SUBSTANCE | EXPERIMENTAL VALUE |
| --- | --- |
| H-Y[Aib]QGTFTSD[4Pal]SQ[αMeL]LD[Orn]K([γGlu-γGlu-C18 diacid])AQ[αMe4Pal]AFIEYLIA[Aib]GPSSGEPPPSGSEE-NH2 [Example 1092] | 1.33 |
| H-Y[Aib]QGTFTSD[4Pal]SQ[αMeL]LDKK([dE-γGlu-C18 diacid])AQ[αMe4Pal]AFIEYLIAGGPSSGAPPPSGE-NH2 [Example 1085] | 1.28 |
| H-Y[Aib]QGTFTSD[4Pal]S[Orn][αMeL]LD[Orn]K([γGlu-γGlu-C18 diacid])AQ[αMe4Pal]QFIEYLLAGGPSSGAPPPSGSEE-NH2 [Example 1002] | 9.09 |
| H-Y[Aib]QGTFTSDFSK[αMeL]LDKK([AEEA-γGlu-C20 diacid])AQ[Aib]AFIEYLLAGGPSSGEPPPSEE-NH2 [Example 4] | 1.66 |
| H-Y[Aib]QGTFTSDFS[Orn][αMeL]LDKK([AEEA-γGlu-C18 diacid])AQ[Aib]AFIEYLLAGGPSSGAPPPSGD-NH2 [Example 85] | 2.73 |
| H-Y[Aib]QGTFTSD[4Pal]SK[αMeL]LDKK([AEEA-γGlu-C18 diacid])AQ[Aib]AFIEYLIA[Aib]GESSGEPPPSGS-NH2 [Example 287] | 4.25 |

----------
Biological target: hGcgR (Homo sapiens, UniProt P47871)
Sequence (P47871 26-477): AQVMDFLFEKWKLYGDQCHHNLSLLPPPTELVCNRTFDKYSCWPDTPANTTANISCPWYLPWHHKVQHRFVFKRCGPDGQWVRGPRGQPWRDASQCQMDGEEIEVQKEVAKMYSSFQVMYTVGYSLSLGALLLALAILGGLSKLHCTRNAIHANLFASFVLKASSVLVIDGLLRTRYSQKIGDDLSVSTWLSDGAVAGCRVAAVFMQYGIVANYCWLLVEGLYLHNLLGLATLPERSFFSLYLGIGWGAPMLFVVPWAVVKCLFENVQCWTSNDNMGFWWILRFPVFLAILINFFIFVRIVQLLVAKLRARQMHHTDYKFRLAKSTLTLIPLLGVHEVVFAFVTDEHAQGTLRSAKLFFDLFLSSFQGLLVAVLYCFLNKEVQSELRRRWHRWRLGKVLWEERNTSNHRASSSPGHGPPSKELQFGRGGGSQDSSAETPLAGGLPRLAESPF
Test: Functional cAMP activation in the presence of 0.1% casein (no HSA)
Assay type: cell-based
Conditions: in the presence of 0.1% casein (no HSA); geometric mean; read-out: Relative cAMP EC50, hGcgR
pEC50: −log10 of the molar value. Starred links: 1 amine or outer side, 2 acyl side, 3 side chain; linkers in the order of their positions; H or OH if unused. Non-standard residues stand in square brackets, D forms with d. Groups on a side chain read outwards from the residue. *: point of attachment. C20 diacid = O=C(O)CCCCCCCCCCCCCCCCCCC(=O)*; C18 diacid = O=C(O)CCCCCCCCCCCCCCCCC(=O)*; αMePhe(2-F) = C[C@](N)(Cc1ccccc1F)C(=O)O; γGlu = O=C(O)[C@H](CCC(=O)[*:2])N[*:1]; αMe4Pal = C[C@](N)(Cc1ccncc1)C(=O)O; αMeY = C[C@](N)(Cc1ccc(O)cc1)C(=O)O; 4Pal = N[C@@H](Cc1ccncc1)C(=O)O; αMeL = CC(C)C[C@](C)(N)C(=O)O; αMeS = C[C@](N)(CO)C(=O)O; Orn = NCCC[C@H](N)C(=O)O; AEEA = NCCOCCOCC(=O)O; Aib = CC(C)(N)C(=O)O

| SUBSTANCE | pEC50 |
| --- | --- |
| H-Y[Aib]QGTFTSD[4Pal]SQ[αMeL]LDKK([AEEA-γGlu-C18 diacid])AQ[αMe4Pal]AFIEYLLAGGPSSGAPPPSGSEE-NH2 [Example 1037] | 8.48 |
| H-Y[Aib]QGTFTSD[4Pal]SQ[αMeL]LDKK([AEEA-γGlu-C18 diacid])AQ[αMe4Pal]AFIE[αMe4Pal]LIE[Aib]GPSSGAPPPSGTE-NH2 [Example 1116] | 8.09 |
| H-Y[Aib]QGT[αMePhe(2-F)]TSD[4Pal][αMeS]I[αMeL]LD[Orn]K([AEEA-γGlu-C18 diacid])AQ[αMe4Pal]EFI[dE][αMeY]LIEGGPSSGAPPPEGE-NH2 [Example 1148] | 8.80 |
| H-Y[Aib]QGTFTSD[4Pal]SQ[αMeL]LD[Orn]K([AEEA-γGlu-C18 diacid])AQ[αMe4Pal]AFIE[αMeY]LIEGGPSSGAPPPSGSEE-NH2 [Example 1041] | 8.11 |
| H-Y[Aib]QGTFTSDYSI[αMeL]LDKIAAK([AEEA-AEEA-γGlu-C20 diacid])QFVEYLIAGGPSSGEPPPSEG-NH2 [Example 312] | 8.12 |
| H-Y[Aib]QGTFTSDFS[Orn][αMeL]LD[Orn]K([γGlu-γGlu-C18 diacid])AQ[Aib]AFIE[αMeY]LLEGGPSSGAPPPGGSEE-NH2 [Example 1049] | 8.20 |

----------
Target: hGcgR (Homo sapiens, UniProt P47871)
Assay: Functional cAMP activation in the presence of 0.1% casein (no HSA);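 for Relative cAMP EC50, hGcgR: intracellular cAMP rise after 30 min at 37 °C, read by HTRF against a cAMP standard curve, scaled from buffer only (0%) to maximal control ligand response (100%)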
Type: cell-based
Conditions: in the presence of 0.1% casein (no HSA); geometric mean; read-out: Relative cAMP EC50, hGcgR
Starred links: 1 amine or outer side, 2 acyl side, 3 side chain; linkers in the order of their positions; H or OH if unused. Non-standard residues stand in square brackets, D forms with d. Groups on a side chain read outwards from the residue. No end group written: not given here. *: point of attachment. C20 diacid = O=C(O)CCCCCCCCCCCCCCCCCCC(=O)*; C18 diacid = O=C(O)CCCCCCCCCCCCCCCCC(=O)*; αMePhe(2-F) = C[C@](N)(Cc1ccccc1F)C(=O)O; γGlu = O=C(O)[C@H](CCC(=O)[*:2])N[*:1]; αMe4Pal = C[C@](N)(Cc1ccncc1)C(=O)O; αMeY = C[C@](N)(Cc1ccc(O)cc1)C(=O)O; 4Pal = N[C@@H](Cc1ccncc1)C(=O)O; αMeL = CC(C)C[C@](C)(N)C(=O)O; αMeS = C[C@](N)(CO)C(=O)O; Orn = NCCC[C@H](N)C(=O)O; Dap = NC[C@H](N)C(=O)O; AEEA = NCCOCCOCC(=O)O; Aib = CC(C)(N)C(=O)O
Class membership depends on EC50 alone; the intervals are LOW: < 4 nM; MID: ≥ 4 nM and < 7 nM; HIGH: ≥ 7 nM

| SUBSTANCE | TARGET OR SYSTEM | CLASS NAME |
| --- | --- | --- |
| H-Y[Aib]QGTFTSD[4Pal]SQ[αMeL]LDKK([AEEA-γGlu-C18 diacid])AQ[αMe4Pal]AFIEYLIE[Aib]GPSSGAPPPEGS-NH2 [Example 851] | hGcgR (Homo sapiens, UniProt P47871) | LOW |
| H-Y[Aib]QGTFTSD[4Pal]SR[αMeL]LDKK([AEEA-γGlu-C18 diacid])AQ[αMe4Pal]AFIEYLIE[Aib]GPSSGAPPPSGS-NH2 [Example 809] | hGcgR (Homo sapiens, UniProt P47871) | LOW |
| H-Y[Aib]QGTFTSD[4Pal]SQ[αMeL]LD[Orn]K([AEEA-γGlu-C18 diacid])AQ[αMe4Pal]AFIE[αMeY]LIA[Aib]GPSSGAPPPSGSEE-NH2 [Example 1110] | hGcgR (Homo sapiens, UniProt P47871) | MID |
| H-Y[Aib]QGTFTSD[4Pal]S[Orn][αMeL]LD[Orn]K([γGlu-γGlu-C18 diacid])AQ[αMe4Pal][Orn]FIE[αMeY]LIEGGPSSGAPPPSGSEE-NH2 [Example 974] | hGcgR (Homo sapiens, UniProt P47871) | LOW |
| H-Y[Aib]QGTFTSDFS[Orn][αMeL]LDKK([AEEA-γGlu-C20 diacid])AQ[Aib]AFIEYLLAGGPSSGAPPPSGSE-NH2 [Example 84] | hGcgR (Homo sapiens, UniProt P47871) | HIGH |
| H-Y[Aib]QGTFTSDYSK[αMeL]LDKK([AEEA-γGlu-C20 diacid])AQQAFIQWLIEGGPSSGEPPPSEG-NH2 [Example 314] | hGcgR (Homo sapiens, UniProt P47871) | LOW |
| H-Y[Aib]QGTFTSDYSI[αMeL]LDKQAAK([AEEA-AEEA-γGlu-C20 diacid])QFVEWLLA[Aib]GPSSGAPPPSEG-NH2 [Example 327] | hGcgR (Homo sapiens, UniProt P47871) | LOW |
| H-Y[Aib]QGTFTSD[4Pal]SQ[αMeL]LD[Orn]K([AEEA-γGlu-C18 diacid])AQ[αMe4Pal]QFIE[αMeY]LIEGGPSSGAPPPSGS-NH2 [Example 857] | hGcgR (Homo sapiens, UniProt P47871) | MID |
| Y[Aib]QGT[αMePhe(2-F)]TSD[4Pal][αMeS]I[αMeL]LD[Orn]K([γGlu-γGlu-C18 diacid])AQ[αMe4Pal]EFI[dE][αMeY]LIEGGPSSGAPPPSGE-NH2 [Example 1150] | hGcgR (Homo sapiens, UniProt P47871) | LOW |
| H-Y[Aib]QGTFTSD[4Pal]SQ[αMeL]LDKK([γGlu-γGlu-C18 diacid])AQ[αMe4Pal]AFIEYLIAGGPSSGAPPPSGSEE-NH2 [Example 960] | hGcgR (Homo sapiens, UniProt P47871) | MID |
| Y[Aib]QGTFTSDFS[Orn][αMeL]LDKK([AEEA-γGlu-C18 diacid])AQ[Aib]AFIEYLLE[dA]GPSSGEPPPSGE-NH2 [Example 135] | hGcgR (Homo sapiens, UniProt P47871) | LOW |
| H-Y[Aib]QGTFTSD[4Pal]SQ[αMeL]LD[Orn]K([γGlu-γGlu-C18 diacid])AQ[αMe4Pal]AFIE[αMeY]LIE[Aib]GPSSGEPPPSGSEE-NH2 [Example 1093] | hGcgR (Homo sapiens, UniProt P47871) | HIGH |
| H-Y[Aib]QGTFTSDYSQ[αMeL]LDKK([AEEA-γGlu-C18 diacid])AQ[Aib]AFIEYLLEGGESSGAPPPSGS-NH2 [Example 362] | hGcgR (Homo sapiens, UniProt P47871) | MID |
| H-Y[Aib]QGTFTSDFS[Dap][αMeL]LDKK([AEEA-γGlu-C18 diacid])AQ[Aib]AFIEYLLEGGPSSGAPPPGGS-NH2 [Example 68] | hGcgR (Homo sapiens, UniProt P47871) | HIGH |
| H-Y[Aib]QGTFTSD[4Pal]SQ[αMeL]LD[Orn]K([γGlu-γGlu-C18 diacid])AQ[Aib]AFIE[αMeY]LLEGGPSSGAPPPSGSEE-NH2 [Example 946] | hGcgR (Homo sapiens, UniProt P47871) | HIGH |
| Y[Aib]QGTFTSDFSK[αMeL]LDKK([AEEA-γGlu-C20 diacid])AQ[Aib]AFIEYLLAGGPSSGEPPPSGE-NH2 [Example 2] | hGcgR (Homo sapiens, UniProt P47871) | MID |
| H-Y[Aib]QGT[αMePhe(2-F)]TSD[4Pal]SILLDKQAQK([AEEA-AEEA-γGlu-C20 diacid])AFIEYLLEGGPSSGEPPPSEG-NH2 [Example 347] | hGcgR (Homo sapiens, UniProt P47871) | HIGH |
| H-Y[Aib]QGTFTSDFSK[αMeL]LDKK([AEEA-γGlu-C20 diacid])AQ[Aib]AFIEYLLEGGPSSGEPPPGEG[AEEA]-NH2 [Example 54] | hGcgR (Homo sapiens, UniProt P47871) | LOW |
